experiment: Intravenous and buccal pharmacokinetic study in the minipig
Assay type: in vivo
applied.conditions: male, Göttingen, in vivo, 0.01 mg/kg, buccal 0.010 mg/kg, mean, read-out: Plasma concentration Day 3 Hour 2, Mean
Structures can show the parent of a compound that is named as a salt.
readout.label: concentration at 2 h (ng/mL)
Report the figure in ng/mL without appending any unit label.

Entry CCCN1CCC[C@@H]2Cc3c(ccc(O)c3O)C[C@H]21 [compound 10, hydrobromide] needs its concentration at 2 h filled in; supply it.
0.487

====

experiment: Intravenous and buccal pharmacokinetic study in the minipig
Format: in vivo
applied.conditions: male, Göttingen, in vivo, iv, 0.0025 mg/kg, IV 0.0025 mg/kg, individual animals 1-3, read-out: Plasma concentration Day 1 Hour 4
Structures can show the parent of a compound that is named as a salt.
readout.label: concentration at 4 h (ng/mL)
Report the figure in ng/mL without appending any unit label.

Entry CCCN1CCC[C@@H]2Cc3c(ccc(O)c3O)C[C@H]21 [compound 10, hydrobromide] needs its concentration at 4 h filled in; supply it.
0.0748
